Measured values drawn from patent US12077503B2 for this set.

- System: ivy-leaved morning glory (Ipomoea hederacea)
- measurement.protocol: Test G Pre-Emergence Protocol
- Type: in vivo
- measurement.conditions: Ipomoea, pre-emergence, 312 h, 62.5 g ai/ha, evaluated after 13 days, 100=total damage to plant, 0=no damage to plant, read-out: Morningglory, Ivy-leaved damage rating
Record form. Attribute: pest or weed control at 62.5 g/ha. Fill in for each entry.
One number for each entry, in %.

// below: answered compounds
CN1C[C@@H](c2ccc(C(F)(F)F)cc2)[C@H](C(=O)Nc2ccc(F)nn2)C1=O (racemic)    0
COc1cc(C)cc([C@@H]2CN(C)C(=O)[C@H]2C(=O)Nc2cccc(F)c2C)c1 (racemic)    20
CN1C[C@H](c2ccc(C(F)(F)F)cc2)[C@@H](C(=O)Nc2ccc(C(F)(F)F)cn2)C1=O (racemic)    0
COc1cc(C2CN(C)C(=O)C2C(=O)Nc2cccc(F)c2F)cc(C(F)(F)F)c1F (stereo not shown)    20
CN1C[C@H](c2ccc(C(F)(F)F)cc2)[C@@H](C(=O)Nc2ccc[n+]([O-])c2C(F)(F)F)C1=O (racemic)    0
COc1cc(OC(F)(F)F)cc(C2CN(C)C(=O)C2C(=O)Nc2cccc(F)c2F)c1 (stereo not shown)    0

Here is another compound to look at.
Which pest or weed control at 62.5 g/ha is listed for CCCOc1cc(OC(F)(F)F)cc(C2CN(C)C(=O)C2C(=O)Nc2cccc(F)c2F)c1 (stereo not shown) ?
20
